# ASSAY_TARGET: Keap1 (A321-C624) (h) (Homo sapiens, UniProt Q14145)
# Construct: His-Thromb-KEAP1(A321-C624) acquired from Novalix (batch PU-P01) was immobilized covalently by amine coupling; His tag (N); thrombin cleavage site (Thromb) (N); purchased Novalix batch PU-P01
# Sequence (Q14145 321-624): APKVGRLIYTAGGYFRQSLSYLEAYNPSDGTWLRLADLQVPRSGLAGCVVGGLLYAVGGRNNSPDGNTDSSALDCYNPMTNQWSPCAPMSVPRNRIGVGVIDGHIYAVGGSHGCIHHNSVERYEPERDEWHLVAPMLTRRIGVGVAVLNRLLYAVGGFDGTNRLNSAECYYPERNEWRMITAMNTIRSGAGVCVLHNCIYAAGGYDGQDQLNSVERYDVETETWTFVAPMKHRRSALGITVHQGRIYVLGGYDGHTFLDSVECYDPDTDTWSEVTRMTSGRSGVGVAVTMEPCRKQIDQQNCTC
# TEST: Surface Plasmon Resonance binding assay to Kelch domain of KEAP1
# SETTINGS: Biacore T200, 25° C., immobilized His-Thromb-KEAP1(A321-C624), single cycle kinetics, KD=kd/ka from 1:1 fit; read-out: Keap1 (A321-C624) (h) direct/SPR (KD)
pKd: −log10 of the molar value.
OBSERVABLE: pKd

>  <MOLECULE>
Cc1ccc2cc1CN1Cc3cc(ccc3OS1(=O)=O)OCc1ccccc1OCCCn1nnc3c(C)c(ccc31)C2CC(=O)O (single isomer, unassigned) [Example 57a]

>  <OBSERVABLE>
pKd

>  <NUMERIC_READOUT>
7.23

$$$$
>  <MOLECULE>
COCCC1CCOc2ccc3c(c2)CN([C@H](C)c2cc(ccc2C)[C@@H](CC(=O)O)c2ccc4c(nnn4C1)c2C)S(=O)(=O)O3 (single isomer, unassigned) [Example 24d]

>  <OBSERVABLE>
pKd

>  <NUMERIC_READOUT>
8.36

$$$$
>  <MOLECULE>
COc1cc2cc(c1)C(CC(=O)O)c1ccc3c(nnn3CCCCOc3ccc4c(c3)CN(C2)S(=O)(=O)O4)c1C (single isomer, unassigned) [Example 8b]

>  <OBSERVABLE>
pKd

>  <NUMERIC_READOUT>
7.91

$$$$
>  <MOLECULE>
Cc1ccc2cc1CN1Cc3cc(ccc3OS1(=O)=O)OCCCCCCn1nnc3c(C)c(ccc31)C2CC(=O)O (single isomer, unassigned) [Example 11a]

>  <OBSERVABLE>
pKd

>  <NUMERIC_READOUT>
8.62

$$$$
>  <MOLECULE>
COc1cc2c3cc1OCCCCn1nnc4c(C)c(ccc41)C(CC(=O)O)c1ccc(C)c(c1)CN(C3)S(=O)(=O)O2 (single isomer, unassigned) [Example 25b]

>  <OBSERVABLE>
pKd

>  <NUMERIC_READOUT>
8.94

$$$$

a: Cc1ccc2cc1CN1Cc3cc(ccc3OS1(=O)=O)OCc1ccccc1OCCCn1nnc3c(C)c(ccc31)C2CC(=O)O (single isomer, unassigned) [Example 57b]
b: COc1ccc2cc1[C@@H](C)N1Cc3cc(ccc3OS1(=O)=O)OCCCCn1nnc3c(C)c(ccc31)[C@H]2CC(=O)O [Example 28b]
I'm curious, which of these has a smaller pKd number: a or b ? When you have decided, please share the label of that item. a
(a: 6.30, b: 8.49)

---

# ASSAY_TARGET: Keap1 (A321-C624) (h) (Homo sapiens, UniProt Q14145)
# Construct: His-Thromb-KEAP1(A321-C624) acquired from Novalix (batch PU-P01) was immobilized covalently by amine coupling; His tag (N); thrombin cleavage site (Thromb) (N)
# TEST: Surface Plasmon Resonance binding assay to Kelch domain of KEAP1
# SETTINGS: Biacore T200, 25° C., immobilized His-Thromb-KEAP1(A321-C624), single cycle kinetics, KD=kd/ka from 1:1 fit; read-out: Keap1 (A321-C624) (h) direct/SPR (KD)
pKd: −log10 of the molar value.
OBSERVABLE: pKd

Study these solved cases before continuing.
>  <COMPOUND>
Cc1ccc2cc1CN1Cc3cc(ccc3OS1(=O)=O)OCCCCCn1nnc3c(C)c(ccc31)C2CC(=O)O (single isomer, unassigned) [Example 1b]

>  <ASSAY_TARGET>
Keap1 (A321-C624) (h) (Homo sapiens, UniProt Q14145)

>  <pKd>
8.40

$$$$
>  <COMPOUND>
Cc1ccc2cc1[C@@H](C)N1Cc3cc(ccc3OS1(=O)=O)OCCC1(CCOCC1)Cn1nnc3c(C)c(ccc31)C2CC(=O)O (stereo partly shown) [Example 68]

>  <ASSAY_TARGET>
Keap1 (A321-C624) (h) (Homo sapiens, UniProt Q14145)

>  <pKd>
8.05

$$$$
>  <COMPOUND>
Cc1c2ccc3c1nnn3CCCCOc1ccc3c(c1)CN(Cc1cc(ccc1Cl)C2CC(=O)O)S(=O)(=O)O3 (single isomer, unassigned) [Example 9a]

>  <ASSAY_TARGET>
Keap1 (A321-C624) (h) (Homo sapiens, UniProt Q14145)

>  <pKd>
8.67

$$$$
>  <COMPOUND>
Cc1c(Cl)cc2cc1CN1Cc3cc(ccc3OS1(=O)=O)OCCCCn1nnc3c(C)c(ccc31)C2CC(=O)O (single isomer, unassigned) [Example 33b]

>  <ASSAY_TARGET>
Keap1 (A321-C624) (h) (Homo sapiens, UniProt Q14145)

>  <pKd>
8.03

$$$$
>  <COMPOUND>
Cc1ccc2cc1CN1Cc3cc(cc(C)c3OS1(=O)=O)OCCCCn1nnc3c(C)c(ccc31)C2CC(=O)O (single isomer, unassigned) [Example 15a]

>  <ASSAY_TARGET>
Keap1 (A321-C624) (h) (Homo sapiens, UniProt Q14145)

>  <pKd>
8.72

$$$$

A: Cc1ccc2cc1CN1Cc3cc(ccc3OS1(=O)=O)OCCCCCCn1nnc3c(C)c(ccc31)C2CC(=O)O (single isomer, unassigned) [Example 11b]
B: Cc1ccc2cc1CN1Cc3cc(ccc3OS1(=O)=O)OCCCCn1nnc3c(C)c(cc(Cl)c31)[C@@H]2CC(=O)O [Example 50]
C: Cc1cc2cc(c1Cl)CN1Cc3cc(ccc3OS1(=O)=O)OCCCCn1nnc3c(C)c(ccc31)C2CC(=O)O (single isomer, unassigned) [Example 36b]
hey, can you rank those compounds up there by pKd? biggest number first please Write out the labels following the order that was asked for. A, B, C

1: Cc1ccc2cc1CN1Cc3c(ccc(c3Cl)OCCCCn3nnc4c(C)c(ccc43)C2CC(=O)O)OS1(=O)=O (single isomer, unassigned) [Example 66b]
2: Cc1ccc2cc1[C@@H](C)N1Cc3cc(ccc3OS1(=O)=O)OCCCCCCn1nnc3c(C)c(ccc31)[C@@H]2CC(=O)O [Example 19a]
Thinking about recorded pKd values, which is higher, 1 or 2 ? Answer with the label corresponding to your selection. 1
(1: 9.08, 2: 8.87)
